Molecular target: T1, Hse1, P38753
T1 sequence (P38753 208-285, looked up): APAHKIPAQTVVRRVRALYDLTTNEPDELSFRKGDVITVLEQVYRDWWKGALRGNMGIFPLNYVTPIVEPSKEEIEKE
Assay: SPOT array
Conditions: median of control spots 1727
Listing: SPOT intensity of selected binders
No unit in the answer, please; the number alone is enough.

Recorded SPOT intensity, per entry:
- NILKRRPLKLEAPSK: 302
- LRIKRKPVQTFFEFI: 25

State the recorded SPOT intensity for this entry: LLRRTIPKRPFYHVL
43

Source of measurements: paper PMC2756588
